# credit: patent US8426202B2

Test system: CHO cell line that expresses an antibody
assay-info: Batch experiment with the substances according to the invention (Example 1)
Assay type: cell-based, Chinese hamster
measurement-parameters: batch mode, day 3; substance 0.5-1 g/l; basal medium glucose 4.7 g/l, glutamine […]
measured-parameter: Specific Glutamin consumption (Gln/VCD)

INSERT INTO assay_data (molecule, observed_value) VALUES
  ('O=C([O-])/C=C/C(=O)[O-].[Na+].[Na+] [Sodium fumarate]', 0.10),
  ('O=C(O)CC(O)C(=O)O (stereo not shown) [Malic acid]', 0.09),
  ('O=C(O)CCCCC(=O)O [Adipic acid]', 0.12),
  ('NCCC[C@H](N)C(=O)O [Ornithine]', 0.15);

###

Let's look at some compounds and their measured Specific lactate production (Lac/VCD).
System: CHO cell line that expresses an antibody
assay-info: Batch experiment with the substances according to the invention (Example 1)
Format: cell-based, Chinese hamster
measurement-parameters: batch mode, day 6; substance 0.5-1 g/l; basal medium glucose 4.7 g/l, glutamine […]
measured-parameter: Specific lactate production (Lac/VCD)

INSERT INTO measurements (compound, tested_target, measured_parameter, observed_value) VALUES
  ('CC(O)C(=O)[O-].[Na+] (stereo not shown) [Sodium lactate]', 'CHO cell line that expresses an antibody', 'Specific lactate production (Lac/VCD)', 0.04),
  ('O=C([O-])CCC(=O)[O-].[Na+].[Na+] [Sodium succinate]', 'CHO cell line that expresses an antibody', 'Specific lactate production (Lac/VCD)', 0.02),
  ('NC(=O)NCCC[C@H](N)C(=O)O', 'CHO cell line that expresses an antibody', 'Specific lactate production (Lac/VCD)', 0.03),
  ('O=C([O-])/C=C/C(=O)[O-].[Na+].[Na+] [Sodium fumarate]', 'CHO cell line that expresses an antibody', 'Specific lactate production (Lac/VCD)', 0.03);

###

System: CHO cell line that expresses an antibody
assay-info: Batch experiment with the substances according to the invention (Example 1)
Assay type: cell-based, Chinese hamster
measurement-parameters: batch mode, day 6; substance 0.5-1 g/l; basal medium glucose 4.7 g/l, glutamine […]
Recorded Specific Glutamin consumption (Gln/VCD) values for a group of compounds are listed next.
measured-parameter: Specific Glutamin consumption (Gln/VCD)

INSERT INTO results (compound, observed_value) VALUES
  ('O=C(O)CC(O)C(=O)O (stereo not shown)', 0.01),
  ('O=C(O)CCCCC(=O)O', 0.01),
  ('NCCC[C@H](N)C(=O)O', 0.00),
  ('CC(O)C(=O)[O-].[Na+] (stereo not shown) [Sodium lactate]', 0.01);
